- Species on record: Rattus norvegicus
- protocol-text: Plasma hydrolysis following 2 hr incubation with rat plasma
- Type: functional
Catalogue of Hydrolysis values

{"molecule": "CCCCC[C@H](O)/C=C/C1[C@@H]2C[C@@H](O)[C@H]1C/C=C\\CCCC(=O)O2 (stereo not given in full)", "unit-abbreviation": "%", "Hydrolysis": 43}
{"molecule": "CCCCC[C@H](O)/C=C/[C@@H]1[C@@H](C/C=C\\CCCC(=O)O)[C@@H](O)C[C@H]1O", "unit-abbreviation": "%", "Hydrolysis": 100}
{"molecule": "CCCCC[C@H](O)/C=C/C1[C@H](O)C[C@@H]2OC(=O)CCC/C=C\\C[C@H]12 (stereo not given in full)", "unit-abbreviation": "%", "Hydrolysis": 0.2}
{"molecule": "CCCCC[C@@H](/C=C/C1[C@H](O)C[C@H](O)[C@@H]1C/C=C\\CCCC(=O)O)OC(C)=O (stereo not given in full)", "unit-abbreviation": "%", "Hydrolysis": 18}
{"molecule": "CCCCC[C@@H]1/C=C\\C2[C@H](O)C[C@H](O)[C@@H]2C/C=C\\CCCC(=O)O1 (stereo not given in full)", "unit-abbreviation": "%", "Hydrolysis": 51.4}

---

- Test system: Monkey
- protocol-text: Plasma hydrolysis following 2 hr incubation with monkey plasma
- Format: functional, Cercopithecidae
Threshold 8%: Hydrolysis strictly smaller gives Y, otherwise N.

{"compound": "CCCCC[C@@H](/C=C/C1[C@H](O)C[C@H](O)[C@@H]1C/C=C\\CCCC(=O)O)OC(C)=O (stereo not given in full)", "assigned-label": "Y"}
{"compound": "CCCCC[C@H](O)/C=C/[C@@H]1[C@@H](C/C=C\\CCCC(=O)O)[C@@H](O)C[C@H]1O [DINOPROST]", "assigned-label": "N"}
{"compound": "CCCCC[C@H](O)/C=C/C1[C@H](O)C[C@@H]2OC(=O)CCC/C=C\\C[C@H]12 (stereo not given in full)", "assigned-label": "Y"}
{"compound": "CCCCC[C@H](O)/C=C/C1[C@@H]2C[C@@H](O)[C@H]1C/C=C\\CCCC(=O)O2 (stereo not given in full)", "assigned-label": "Y"}
{"compound": "CCCCC[C@@H]1/C=C\\C2[C@H](O)C[C@H](O)[C@@H]2C/C=C\\CCCC(=O)O1 (stereo not given in full)", "assigned-label": "N"}

---

- Tested on: Gerbillinae
- protocol-text: Gerbil colon stimulation relative to PGE1 (100); Range is between (1-3)
- Format: functional

{"molecule": "CCCCC[C@H](O)/C=C/C1[C@H](O)C[C@@H]2OC(=O)CCC/C=C\\C[C@H]12 (some centres undefined)", "Relative potency": 1}
{"molecule": "CCCCC[C@@H]1/C=C\\C2[C@H](O)CC(=O)[C@@H]2C/C=C\\CCCC(=O)O1 (some centres undefined)", "Relative potency": 1}
{"molecule": "CCCCC[C@@H]1/C=C\\C2C=CC(=O)[C@@H]2C/C=C\\CCCC(=O)O1 (some centres undefined)", "Relative potency": 0.1}
{"molecule": "CCCCC[C@](C)(O)/C=C/C1[C@H](O)C[C@@H]2OC(=O)CCC/C=C\\C[C@H]12 (some centres undefined)", "Relative potency": 1}

---

- protocol-text: Plasma hydrolysis of percent cross reaction of substrate with PGF2-alpha antisera
- Type: ADME, cell-free
metric-name: Cross reaction (%)

{"compound": "CCCCC[C@@H](/C=C/C1[C@H](O)C[C@H](O)[C@@H]1C/C=C\\CCCC(=O)O)OC(C)=O (stereo not given in full)", "unit-abbreviation": "%", "relation-qualifier": "=", "measured-value": 2.4}
{"compound": "CCCCC[C@H](O)/C=C/[C@@H]1[C@@H](C/C=C\\CCCC(=O)O)[C@@H](O)C[C@H]1O", "unit-abbreviation": "%", "relation-qualifier": "=", "measured-value": 100}
{"compound": "CCCCC[C@@H]1/C=C\\C2[C@H](O)C[C@H](O)[C@@H]2C/C=C\\CCCC(=O)O1 (stereo not given in full)", "unit-abbreviation": "%", "relation-qualifier": "=", "measured-value": 0.9}
{"compound": "CCCCC[C@H](O)/C=C/C1[C@H](O)C[C@@H]2OC(=O)CCC/C=C\\C[C@H]12 (stereo not given in full)", "unit-abbreviation": "%", "relation-qualifier": "<", "measured-value": 0.05}
{"compound": "CCCCC[C@H](O)/C=C/C1[C@@H]2C[C@@H](O)[C@H]1C/C=C\\CCCC(=O)O2 (stereo not given in full)", "unit-abbreviation": "%", "relation-qualifier": "=", "measured-value": 0.09}

---

- Species on record: Homo sapiens
- protocol-text: Plasma hydrolysis following 20 hr incubation with human plasma
- Assay type: functional
Measured Hydrolysis values are reported for all entries that follow.

{"compound": "CCCCC[C@H](O)/C=C/C1[C@H](O)C[C@@H]2OC(=O)CCC/C=C\\C[C@H]12 (stereo not given in full)", "Hydrolysis": "0.4%"}
{"compound": "CCCCC[C@@H](/C=C/C1[C@H](O)C[C@H](O)[C@@H]1C/C=C\\CCCC(=O)O)OC(C)=O (stereo not given in full)", "Hydrolysis": "6.8%"}
{"compound": "CCCCC[C@@H]1/C=C\\C2[C@H](O)C[C@H](O)[C@@H]2C/C=C\\CCCC(=O)O1 (stereo not given in full)", "Hydrolysis": "57.9%"}
{"compound": "CCCCC[C@H](O)/C=C/[C@@H]1[C@@H](C/C=C\\CCCC(=O)O)[C@@H](O)C[C@H]1O [DINOPROST]", "Hydrolysis": "100%"}
{"compound": "CCCCC[C@H](O)/C=C/C1[C@@H]2C[C@@H](O)[C@H]1C/C=C\\CCCC(=O)O2 (stereo not given in full)", "Hydrolysis": "0.6%"}

---

- Species on record: Sus scrofa
- protocol-text: Plasma hydrolysis following 2 h incubation with hog liver esterase
- Type: functional
Classify as follows. Reported Hydrolysis greater than or equal to 60%: rule met. Reported Hydrolysis below: rule not met.

{"compound": "CCCCC[C@@H]1/C=C\\C2[C@H](O)C[C@H](O)[C@@H]2C/C=C\\CCCC(=O)O1 (stereo not given in full)", "assigned-label": "rule not met"}
{"compound": "CCCCC[C@H](O)/C=C/[C@@H]1[C@@H](C/C=C\\CCCC(=O)O)[C@@H](O)C[C@H]1O", "assigned-label": "rule met"}
{"compound": "CCCCC[C@H](O)/C=C/C1[C@@H]2C[C@@H](O)[C@H]1C/C=C\\CCCC(=O)O2 (stereo not given in full)", "assigned-label": "rule not met"}
{"compound": "CCCCC[C@H](O)/C=C/C1[C@H](O)C[C@@H]2OC(=O)CCC/C=C\\C[C@H]12 (stereo not given in full)", "assigned-label": "rule not met"}
